Tested on: SARS-CoV-2
assay details: Inhibitory activity of cytopathic effect (CPE) in HEK293T/ACE2-TMPRSS2 cells
Assay type: cell-based
cond: Severe acute respiratory syndrome coronavirus 2, HEK-293T, 72 h; HEK293T/ACE2-TMPRSS2 cells, cultured 3 days, CellTiter-Glo 2.0 luminescence; read-out: EC50 (50% SARS-CoV-2 infected cell death inhibitory concentration)
pEC50: −log10 of the molar value.
Field: pEC50. Provide a value for each of the compounds that follow.

>>> data_value("COc1cc(-c2cc3cc[nH]c3cc2Cl)cc2c1c(=O)n(Cc1ncn(C)n1)c(=O)n2Cc1cc(F)c(F)c(F)c1 [Compound I-0901]")
"> 7.00"
>>> data_value("COc1nc(N2CC[C@@H](O)C2)cc2c1c(=O)n(-c1cnc3cc(F)ccn13)c(=O)n2Cc1cc(F)c(F)c(Cl)c1 [Compound I-0734]")
"> 7.00"
>>> data_value("COc1nc(N2CC[C@H](CO)C2)cc2c1c(=O)n(-c1cnc3cc(F)ccn13)c(=O)n2-c1ccc(F)c(Cl)c1 [Compound I-0749]")
"> 7.00"
>>> data_value("COc1cc(-c2cc3nc(C(F)F)[nH]c3cc2Cl)cc2c1c(=O)n(Cc1ncn(C)n1)c(=O)n2Cc1cc(F)c(F)c(F)c1 [Compound I-0848]")
"6.00 to 7.00"
>>> data_value("COc1ccc(Cl)c(-c2cc3c(nc2OC)c(=O)n(Cc2ncn(C)n2)c(=O)n3Cc2cc(F)c(F)c(Cl)c2)n1 [Compound I-0820]")
"> 7.00"

For each of the compounds below, note its pEC50.
1. COc1nc(N2CC[C@@H](C#N)C2)cc2c1c(=O)n(-c1cncc(Cl)c1)c(=O)n2-c1ccc(F)c(F)c1 [Compound I-0949]
2. COc1nc(N2CC[C@@H](C#N)C2)cc2c1c(=O)n(-c1cncc(OC(F)F)c1)c(=O)n2-c1ccc(F)c(F)c1 [Compound I-0995]
3. COc1cc(-c2ccc(CC#N)cc2Cl)cc2c1c(=O)n(Cc1ncn(C)n1)c(=O)n2Cc1cc(F)c(F)c(F)c1 [Compound I-0907]
4. [2H]C([2H])([2H])O[C@@H]1CCN(c2cc3c(c(OC)n2)c(=O)n(-c2cncc(C#N)c2)c(=O)n3-c2ccc(F)c(Cl)c2)C1 [Compound I-0948]

Response:
> 7.00
> 7.00
6.00 to 7.00
> 7.00
